# ASSAY_REMARKS: self-splicing fitness, log relative to wild type (ln ratio); higher = more splicing; Tetrahymena group I intron in knt gene, E. coli kanamycin selection, DiMSum; sequences stand for … in CUCUCU…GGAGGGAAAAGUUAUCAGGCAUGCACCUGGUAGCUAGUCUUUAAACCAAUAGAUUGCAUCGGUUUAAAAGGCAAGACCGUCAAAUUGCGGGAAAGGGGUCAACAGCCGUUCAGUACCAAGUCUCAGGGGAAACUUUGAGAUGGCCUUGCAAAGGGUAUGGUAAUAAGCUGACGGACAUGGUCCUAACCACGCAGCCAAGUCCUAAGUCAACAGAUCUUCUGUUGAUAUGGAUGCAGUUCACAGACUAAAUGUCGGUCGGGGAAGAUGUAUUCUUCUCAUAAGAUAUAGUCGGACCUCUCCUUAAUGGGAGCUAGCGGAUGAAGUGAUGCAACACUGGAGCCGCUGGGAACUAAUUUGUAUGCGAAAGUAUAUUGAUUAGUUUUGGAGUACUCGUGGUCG;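 note: selection with 25 µg/mL kanamycin versus none on LB agar overnight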
# CONDITION_SET: 30 °C
OBSERVED_PROPERTY: self-splicing fitness (ln)
Number only, no unit.

>>> df
          item_sequence           observed_property  numeric_readout
0  GCAGAGCAAUAUUACGCAAG  self-splicing fitness (ln)            -3.03
1  UUCUAGCAAUAUUACGUGGG  self-splicing fitness (ln)            -3.08

Task: # input sequence: UCAGAGCAAUAUUACGAUGG ; wanted: its self-splicing fitness (ln)
Result: -2.97

Task: # input sequence: CCGCAGCAAUAUUACGUAGA ; wanted: its self-splicing fitness (ln)
Result: -3.07

Task: # input sequence: GGCAAGCAAUAUUACGCGGU ; wanted: its self-splicing fitness (ln)
Result: -2.97

Task: # input sequence: CUUAAGCAAUAUUACGAAGC ; wanted: its self-splicing fitness (ln)
Result: -3.09

Task: # input sequence: ACAAAGCAAUAUUACGUAUG ; wanted: its self-splicing fitness (ln)
Result: -3.01

###

# ASSAY_REMARKS: self-splicing fitness, log relative to wild type (ln ratio); higher = more splicing; Tetrahymena group I intron in knt gene, E. coli kanamycin selection, DiMSum; sequences stand for … in CUCUCU…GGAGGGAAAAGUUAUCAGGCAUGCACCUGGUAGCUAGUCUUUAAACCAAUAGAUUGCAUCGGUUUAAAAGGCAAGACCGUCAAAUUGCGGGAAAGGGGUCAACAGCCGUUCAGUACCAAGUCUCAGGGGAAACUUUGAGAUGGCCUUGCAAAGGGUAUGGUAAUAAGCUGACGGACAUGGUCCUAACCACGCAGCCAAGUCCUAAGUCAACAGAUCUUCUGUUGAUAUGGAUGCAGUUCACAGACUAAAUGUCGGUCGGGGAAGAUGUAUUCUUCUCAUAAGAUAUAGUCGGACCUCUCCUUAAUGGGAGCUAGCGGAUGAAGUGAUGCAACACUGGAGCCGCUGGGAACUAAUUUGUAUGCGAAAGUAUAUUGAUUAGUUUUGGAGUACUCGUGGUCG
# CONDITION_SET: 37 °C
Threshold rule: self-splicing fitness (ln) greater than or equal to -1 is Satisfied; below that, Not satisfied.

Task: // inclusive: self-splicing fitness (ln) at least -1? input: GCGCAGCAAUAUUACGAUAG
Result: Satisfied
